Origin of the recorded values: patent US10414718B2

- experimentalTarget: μ opioid receptor (Homo sapiens, UniProt P35372)
- Sequence (P35372 whole entry): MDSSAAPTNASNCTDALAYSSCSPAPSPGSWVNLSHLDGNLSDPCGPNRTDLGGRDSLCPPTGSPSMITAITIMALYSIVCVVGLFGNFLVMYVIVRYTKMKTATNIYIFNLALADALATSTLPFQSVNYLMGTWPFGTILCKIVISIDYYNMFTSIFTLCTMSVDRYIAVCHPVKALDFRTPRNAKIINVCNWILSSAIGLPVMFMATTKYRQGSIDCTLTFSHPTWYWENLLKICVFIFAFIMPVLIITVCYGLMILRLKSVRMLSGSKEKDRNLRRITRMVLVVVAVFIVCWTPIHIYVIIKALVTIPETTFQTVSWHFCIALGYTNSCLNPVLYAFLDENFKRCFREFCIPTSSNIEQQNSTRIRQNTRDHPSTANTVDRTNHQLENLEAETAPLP
- testProtocol: FLIPR intracellular calcium signal test, HEK293-μ cells
- settings: IC50 (inhibition) test against EC80 of positive agonist, read-out: Mu receptor IC50
Counter-ions that a name gives are not always drawn.
As shown below, each of these molecules has a reported IC50 value.

# example entries with known answers
Incoming: Note IC50 for the molecule shown: CC12CCCCCC(Cc3cc(Cl)c(O)c(Cl)c31)C2N (stereo not shown)
Outgoing: 10 to 100 µM

Incoming: Note IC50 for the molecule shown: CC12CCCCCC(Cc3cc(C4CC4)c(O)cc31)C2N (stereo not shown)
Outgoing: > 100 µM

Incoming: Note IC50 for the molecule shown: CC12CCCCCC(Cc3c(-c4ccccc4)cc(O)cc31)C2N (stereo not shown)
Outgoing: > 100 µM

Incoming: Note IC50 for the molecule shown: CCCC12CCCCC(Cc3c(F)cc(O)cc31)C2N (stereo not shown)
Outgoing: 0.1 to 1 µM

Incoming: Note IC50 for the molecule shown: CC12CCCCCC(Cc3c(CO)cc(O)cc31)C2N (stereo not shown)
Outgoing: 1 to 10 µM

Incoming: Note IC50 for the molecule shown: CC12CCCCCC(Cc3cc(F)c(O)cc31)C2N (stereo not shown) [Hydrochloride of Compound 17]
Outgoing: 1 to 10 µM

Now consider a different molecule.
Incoming: Note IC50 for the molecule shown: CC(C)c1cc(O)cc2c1CC1CCCCCC2(C)C1N (stereo not shown)
Outgoing: 10 to 100 µM

---

- testProtocol: Pharmacokinetics of intramuscular injection of Compound 21 and prodrug thereof in rats
- settings: SD, in vivo, im, 20 umol/kg, rat, carboxylic diester prodrug 20 μmol/kg, analyte: prodrug itself, read-out: AUC0-last of the prodrug
attributeMeasured: AUC(0-t) (nM·h)
Provide only the numeric value, understood in nM·h.

Incoming: Note AUC(0-t) for the compound shown: C[C@@]12CCCCC[C@@H](Cc3c(F)cc(OC(=O)CCCCC(=O)Oc4cc(F)c5c(c4)[C@@]4(C)CCCCC[C@@H](C5)[C@@H]4N)cc31)[C@@H]2N
Outgoing: 2.95

---

- experimentalTarget: μ opioid receptor (Homo sapiens, UniProt P35372)
- testProtocol: FLIPR intracellular calcium signal test, HEK293-μ cells
- settings: EC50 (activation) test, read-out: Mu receptor EC50
pEC50: −log10 of the molar value. Where a name gives a salt, the structure may show the parent alone.
attributeMeasured: pEC50

Incoming: Give the observed pEC50 of CC12CCCCCC(Cc3c(-c4ccccc4)cc(O)cc31)C2N (stereo not drawn) for μ opioid receptor (Homo sapiens, UniProt P35372).
Outgoing: < 4.00

Incoming: Give the observed pEC50 of CC12CCCCCC(Cc3cc(F)c(O)cc31)C2N (stereo not drawn) [Hydrochloride of Compound 17] for μ opioid receptor (Homo sapiens, UniProt P35372).
Outgoing: 5.00 to 6.00

Incoming: Give the observed pEC50 of C[C@]12CCCCC[C@H](Cc3c(F)cc(O)cc31)[C@@H]2N for μ opioid receptor (Homo sapiens, UniProt P35372).
Outgoing: 5.00 to 6.00

Incoming: Give the observed pEC50 of CC12CCCCCC(Cc3cc(O)c(O)cc31)C2N (stereo not drawn) for μ opioid receptor (Homo sapiens, UniProt P35372).
Outgoing: 5.00 to 6.00

Incoming: Give the observed pEC50 of CCCC12CCCCC(Cc3c(F)cc(O)cc31)C2N (stereo not drawn) for μ opioid receptor (Homo sapiens, UniProt P35372).
Outgoing: 6.00 to 7.00

Incoming: Give the observed pEC50 of CC12CCCCCC(Cc3cc(C#N)c(O)cc31)C2N (stereo not drawn) for μ opioid receptor (Homo sapiens, UniProt P35372).
Outgoing: < 4.00

Incoming: Give the observed pEC50 of C[C@]12CCCCC[C@@H](Cc3c(Cl)cc(O)cc31)[C@@H]2N for μ opioid receptor (Homo sapiens, UniProt P35372).
Outgoing: ≥ 7.00

Incoming: Give the observed pEC50 of CC12CCCCCC(Cc3c(CO)cc(O)cc31)C2N (stereo not drawn) for μ opioid receptor (Homo sapiens, UniProt P35372).
Outgoing: < 4.00

Incoming: Give the observed pEC50 of CC12CCCCC(Cc3c(F)cc(O)cc31)C2N (single isomer, unassigned) [Compound 32] for μ opioid receptor (Homo sapiens, UniProt P35372).
Outgoing: 6.00 to 7.00
